Just for reference, ChEMBL document CHEMBL3297703 is where these values come from.

- Measurement target: Muscarinic acetylcholine receptor M1 (Rattus norvegicus, UniProt P08482)
- Sequence (P08482 whole entry): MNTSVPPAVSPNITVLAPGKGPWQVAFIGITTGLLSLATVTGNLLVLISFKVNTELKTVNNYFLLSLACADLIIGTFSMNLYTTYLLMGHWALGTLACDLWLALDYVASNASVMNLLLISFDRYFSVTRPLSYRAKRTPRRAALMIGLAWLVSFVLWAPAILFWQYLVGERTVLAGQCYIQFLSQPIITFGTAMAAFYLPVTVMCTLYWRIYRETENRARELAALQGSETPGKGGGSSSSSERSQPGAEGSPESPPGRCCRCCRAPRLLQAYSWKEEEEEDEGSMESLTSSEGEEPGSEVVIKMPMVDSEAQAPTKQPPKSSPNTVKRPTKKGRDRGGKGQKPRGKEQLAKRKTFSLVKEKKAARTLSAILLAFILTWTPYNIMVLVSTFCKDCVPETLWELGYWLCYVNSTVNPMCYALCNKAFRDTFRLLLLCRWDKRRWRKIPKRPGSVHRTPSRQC
Observable: log10 of Ki (log10 of the value in pM)
log10 Ki, pM

Completed entries (count: 4):
O=C(Nc1ncsc1-c1ccccc1)OC12CCN(CC1)CC2 | 2.59
C[N+]12CCC(OC(=O)Nc3ncsc3-c3cccc(C(F)(F)F)c3)(CC1)CC2 | 3.36
C[N+]12CCC(OC(=O)Nc3ncsc3-c3ccccc3)(CC1)CC2 | 1.74
O=C(Nc1scnc1-c1ccccc1)O[C@H]1CN2CCC1CC2 | 3.94

Reported log10 of Ki ( O=C(Nc1ccsc1-c1ccccc1)O[C@H]1CN2CCC1CC2 ) = 2.28

Documented log10 of Ki of O=C(Nc1ncsc1-c1ccccc1)O[C@H]1CN2CCC1CC2 : 2.88

Entry C[N+]12CCC(CC1)[C@@H](OC(=O)Nc1ncsc1-c1cccc(Cl)c1)C2 , log10 of Ki reported as 2.49

# log10 of Ki (molecule: O=C(Nc1ncoc1-c1ccccc1)O[C@H]1CN2CCC1CC2 ) is 3.94

log10 of Ki recorded for this molecule, C[N+]1(C)[C@@H]2C[C@@H](OC(=O)C(O)(c3cccs3)c3cccs3)C[C@H]1[C@@H]1O[C@@H]12.O.[Br-] [TIOTROPIUM BROMIDE] , is 2.20

----------
- System: Rattus norvegicus
- Assay explanation: Bronchodilatory effect in it dosed Sprague-Dawley rat assessed as inhibition of CCh-induced bronchoconstriction after 24 hrs
- Assay type: functional
- Condition summary: read-out: ID50 (the source's name)
Observable: ED50 (µg/kg)
Answer in µg/kg, number only, no unit symbol.

C[N+]12CCC(OC(=O)Nc3ncsc3-c3cccc(Cl)c3)(CC1)CC2.[Br-] | 0.08

Summary for this compound, C[N+]1(C)[C@@H]2C[C@@H](OC(=O)C(O)(c3cccs3)c3cccs3)C[C@H]1[C@@H]1O[C@@H]12.O.[Br-] [TIOTROPIUM BROMIDE] : ED50 is 0.12

The reported value for C[N+]1(C)CCC(OC(=O)C(O)(c2ccccc2)C2CCCC2)C1.[Br-] (centres undefined) [GLYCOPYRRONIUM BROMIDE] in terms of ED50 is 3.4

Entry O=C(O[C@H]1C[N+]2(CCCOc3ccccc3)CCC1CC2)C(O)(c1cccs1)c1cccs1.[Br-] [ACLIDINIUM BROMIDE] ; ED50 = 0.4

----------
As a worked illustration, we turn to Ki data collected for Muscarinic acetylcholine receptor M2 (Rattus norvegicus).
A bare number is not enough; add the unit after it.

Example results:
O=C(Nc1ccsc1-c1ccccc1)O[C@@H]1CN2CCC1CC2 | 13 nM
C[N+]12CCC(OC(=O)Nc3ncsc3-c3cccc(C(F)(F)F)c3)(CC1)CC2 | 14 nM
O=C(Nc1ncsc1-c1ccccc1)O[C@H]1CN2CCC1CC2 | 1.9 nM
C[N+]12CCC(OC(=O)Nc3ncsc3-c3ccc(F)cc3)(CC1)CC2 | 0.21 nM
O=C(Nc1ncsc1-c1ccccc1)OC12CCN(CC1)CC2 | 0.8 nM

Short answer for O=C(Nc1sccc1-c1ccccc1)OC12CCN(CC1)CC2 : Ki was 1.4 nM

Per the records, this molecule ( C[N+]12CCC(OC(=O)Nc3ncsc3-c3cccc(Cl)c3)(CC1)CC2 ) has Ki equal to 0.053 nM

Consider C[N+]12CCC(CC1)[C@@H](OC(=O)Nc1ncsc1-c1cccc(Cl)c1)C2 . Its measured Ki is 1.2 nM

So for O=C(Nc1ccsc1-c1ccccc1)OC12CCN(CC1)CC2 , the logged Ki turned out to be 0.46 nM

----------
- Measurement target: Muscarinic acetylcholine receptor M3 (Rattus norvegicus)
The label is 1 for Ki below 0.1 nM and 0 for Ki equal to or exceeding 0.1 nM.

C[N+]12CCC(CC1)[C@@H](OC(=O)Nc1ncsc1-c1ccccc1)C2 | 0
O=C(Nc1ccsc1-c1ccccc1)O[C@@H]1CN2CCC1CC2 | 0
O=C(Nc1scnc1-c1ccccc1)O[C@H]1CN2CCC1CC2 | 0
C[N+]12CCC(OC(=O)Nc3ccsc3-c3ccccc3)(CC1)CC2 | 1
C[N+]1(C)[C@@H]2C[C@@H](OC(=O)C(O)(c3cccs3)c3cccs3)C[C@H]1[C@@H]1O[C@@H]12.O.[Br-] [TIOTROPIUM BROMIDE] | 0

Now turn to the next molecule.
Report whether reported Ki is lower than 0.1 nM (strictly) for O=C(Nc1sccc1-c1ccccc1)OC12CCN(CC1)CC2
0

----------
- Measurement target: Muscarinic acetylcholine receptor M3 (Rattus norvegicus, UniProt P08483)
- Sequence (P08483 whole entry): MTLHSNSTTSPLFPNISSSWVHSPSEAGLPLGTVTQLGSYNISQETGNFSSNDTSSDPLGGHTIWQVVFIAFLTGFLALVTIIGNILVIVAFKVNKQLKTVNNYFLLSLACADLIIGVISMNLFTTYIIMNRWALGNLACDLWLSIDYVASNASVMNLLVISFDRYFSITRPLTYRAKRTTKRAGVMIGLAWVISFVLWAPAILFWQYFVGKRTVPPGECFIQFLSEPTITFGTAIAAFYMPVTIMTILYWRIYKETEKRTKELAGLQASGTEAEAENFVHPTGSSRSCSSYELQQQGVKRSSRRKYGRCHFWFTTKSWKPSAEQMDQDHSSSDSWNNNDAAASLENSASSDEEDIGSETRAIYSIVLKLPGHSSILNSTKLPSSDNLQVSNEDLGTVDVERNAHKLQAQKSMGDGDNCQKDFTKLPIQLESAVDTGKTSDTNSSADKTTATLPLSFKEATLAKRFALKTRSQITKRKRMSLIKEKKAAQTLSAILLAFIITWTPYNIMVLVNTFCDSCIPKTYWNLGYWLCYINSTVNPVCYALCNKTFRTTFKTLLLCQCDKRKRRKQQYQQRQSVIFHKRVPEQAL
Recorded log10 of Ki for the following compounds
Values below are the log10 of the recorded Ki, with nM as the unit.

O=C(Nc1cscc1-c1ccccc1)OC12CCN(CC1)CC2 | -0.68
O=C(Nc1ccccc1-c1ccccc1)OC12CCN(CC1)CC2 | -0.85
C[N+]12CCC(CC1)[C@@H](OC(=O)Nc1ncsc1-c1cccc(Cl)c1)C2 | -0.60
C[N+]12CCC(OC(=O)Nc3ncsc3-c3ccccc3)(CC1)CC2 | -1.19
O=C(Nc1ncsc1-c1ccccc1)O[C@H]1CN2CCC1CC2 | -0.03

Notebook: C[N+]12CCC(OC(=O)Nc3ncsc3-c3cccc(C(F)(F)F)c3)(CC1)CC2 , log10 of Ki read as 0.26

Value of measured log10 of Ki for the entry O=C(Nc1ncoc1-c1ccccc1)O[C@H]1CN2CCC1CC2 : 0.99

According to the records, this compound C[N+]12CCC(OC(=O)Nc3ncsc3-c3cc(Cl)cc(Cl)c3)(CC1)CC2 displays log10 of Ki of -0.92

Summary for this compound, C[N+]12CCC(OC(=O)Nc3ncsc3-c3cccc(Cl)c3)(CC1)CC2 : log10 of Ki is -1.31

Reported log10 of Ki for O=C(Nc1ccsc1-c1ccccc1)O[C@H]1CN2CCC1CC2 was -0.72

Measured log10 of Ki, O=C(Nc1ccsc1-c1ccccc1)OC12CCN(CC1)CC2 : -1.25

----------
- Tested on: Rattus norvegicus
- Assay explanation: Bronchodilatory effect in Sprague-Dawley rat assessed as inhibition of CCh-induced bronchoconstriction at 0.5 ug/kg, it after 0.5 hrs
- Type: functional
Parameter inhibition in vivo at 0.0005 mg/kg: see the listing below.
Give a bare numeral; the unit % is implied.

Would you please look over these solved cases?
C[N+]12CCC(CC1)[C@@H](OC(=O)Nc1ncsc1-c1ccccc1)C2 | 62
C[N+]12CCC(OC(=O)Nc3ccsc3-c3ccccc3)(CC1)CC2 | 78
C[N+]12CCC(OC(=O)Nc3ncsc3-c3cccc(Cl)c3)(CC1)CC2 | 67
CC(C)[N+]1(C)C2CCC1CC(OC(=O)C(CO)c1ccccc1)C2 (stereo unspecified) | 85
C[N+]1(C)[C@@H]2C[C@@H](OC(=O)C(O)(c3cccs3)c3cccs3)C[C@H]1[C@@H]1O[C@@H]12.O.[Br-] [TIOTROPIUM BROMIDE] | 59

Here is the next item to consider.
Entry C[N+]12CCC(CC1)[C@@H](OC(=O)Nc1ncsc1-c1cccc(Cl)c1)C2 : inhibition in vivo at 0.0005 mg/kg on Rattus norvegicus = 64

----------
Ki by entry:
- Measurement target: Muscarinic acetylcholine receptor M2 (Rattus norvegicus, UniProt P10980)
- Sequence (P10980 whole entry): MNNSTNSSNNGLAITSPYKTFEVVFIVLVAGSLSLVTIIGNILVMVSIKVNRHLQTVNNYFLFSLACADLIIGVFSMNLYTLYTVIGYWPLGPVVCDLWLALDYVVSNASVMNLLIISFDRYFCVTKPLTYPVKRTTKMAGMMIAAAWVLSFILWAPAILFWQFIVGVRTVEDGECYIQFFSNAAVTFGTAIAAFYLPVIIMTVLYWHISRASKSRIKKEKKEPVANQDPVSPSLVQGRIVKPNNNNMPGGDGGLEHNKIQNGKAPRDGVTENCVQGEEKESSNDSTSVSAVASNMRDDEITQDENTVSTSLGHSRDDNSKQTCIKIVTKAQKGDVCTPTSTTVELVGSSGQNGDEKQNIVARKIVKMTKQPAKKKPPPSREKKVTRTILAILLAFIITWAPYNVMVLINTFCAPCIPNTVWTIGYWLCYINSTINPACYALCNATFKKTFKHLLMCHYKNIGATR
Entry rule: numbers only, all in nM.

Item O=C(Nc1ncoc1-c1ccccc1)O[C@H]1CN2CCC1CC2 ; assay system Muscarinic acetylcholine receptor M2 (Rattus norvegicus, UniProt P10980); Ki reported as 59

Entry C[N+]12CCC(CC1)[C@@H](OC(=O)Nc1ncsc1-c1ccccc1)C2 , tested on Muscarinic acetylcholine receptor M2 (Rattus norvegicus, UniProt P10980), has a reported Ki of 1.2

The compound C[N+]1(C)[C@@H]2C[C@@H](OC(=O)C(O)(c3cccs3)c3cccs3)C[C@H]1[C@@H]1O[C@@H]12.O.[Br-] [TIOTROPIUM BROMIDE] , when measured on Muscarinic acetylcholine receptor M2 (Rattus norvegicus, UniProt P10980), yielded Ki of 0.15

For O=C(Nc1ccsc1-c1ccccc1)O[C@H]1CN2CCC1CC2 on Muscarinic acetylcholine receptor M2 (Rattus norvegicus, UniProt P10980), measured Ki was 0.82

Hey, Muscarinic acetylcholine receptor M2 (Rattus norvegicus, UniProt P10980) data for O=C(Nc1ccccc1-c1ccccc1)OC12CCN(CC1)CC2 : Ki came out at 3.8

Entry O=C(Nc1scnc1-c1ccccc1)O[C@H]1CN2CCC1CC2 ; assay system Muscarinic acetylcholine receptor M2 (Rattus norvegicus, UniProt P10980); Ki recorded at 39

Value sought: Ki, system Muscarinic acetylcholine receptor M2 (Rattus norvegicus, UniProt P10980), item O=C(Nc1cscc1-c1ccccc1)OC12CCN(CC1)CC2 . Result: 3.6

Muscarinic acetylcholine receptor M2 (Rattus norvegicus, UniProt P10980) Ki of C[N+]12CCC(OC(=O)Nc3ncsc3-c3ccccc3)(CC1)CC2 is 0.12

Summary: C[N+]12CCC(OC(=O)Nc3ccsc3-c3ccccc3)(CC1)CC2 , Muscarinic acetylcholine receptor M2 (Rattus norvegicus, UniProt P10980), Ki = 0.027

Result for C[N+]12CCC(OC(=O)Nc3ncsc3-c3cc(Cl)cc(Cl)c3)(CC1)CC2 , tested on Muscarinic acetylcholine receptor M2 (Rattus norvegicus, UniProt P10980), Ki: 0.64
